Settings: in n-propanol, 298.2 K
result_type: solubility (mole fraction)

Prompt: Entry under review: Cc1nnc(C(C)C)n1C1C[C@H]2CC[C@@H](C1)N2CC[C@H](NC(=O)C1CCC(F)(F)CC1)c1ccccc1 (some centres not stated) . Reported solubility (mole fraction)?
Response: 0.00088

Prompt: Note, next up: "O=C(Nc1c(Cl)cncc1Cl)c1ccc(OC(F)F)c(OCC2CC2)c1"
Response: 0.000175

----------
Conditions: in 2-pentanone, 283.2 K
Assign solubility (mole fraction) to each entry below.
// keep it numeric: no unit symbol after the value

Prompt: Entry under review: "O=C(Nc1c(Cl)cncc1Cl)c1ccc(OC(F)F)c(OCC2CC2)c1" . Reported solubility (mole fraction)?
Response: 9.8e-05

Prompt: Note, next up: Cc1nnc(C(C)C)n1C1C[C@H]2CC[C@@H](C1)N2CC[C@H](NC(=O)C1CCC(F)(F)CC1)c1ccccc1 (some centres not stated)
Response: 0.000224

----------
Settings: in water, 318.2 K
result_type: solubility (mole fraction)
// keep it numeric: no unit symbol after the value

Prompt: Entry under review: Cc1nnc(C(C)C)n1C1C[C@H]2CC[C@@H](C1)N2CC[C@H](NC(=O)C1CCC(F)(F)CC1)c1ccccc1 (stereo partly specified) . Reported solubility (mole fraction)?
Response: 9.2e-05

----------
Assign solubility (mole fraction) to each entry below.
Details: in 2-butanone, 283.2 K
// keep it numeric: no unit symbol after the value

Prompt: Entry under review: "O=C(Nc1c(Cl)cncc1Cl)c1ccc(OC(F)F)c(OCC2CC2)c1" . Reported solubility (mole fraction)?
Response: 0.00013

Prompt: Note, next up: Cc1nnc(C(C)C)n1C1C[C@H]2CC[C@@H](C1)N2CC[C@H](NC(=O)C1CCC(F)(F)CC1)c1ccccc1 (some centres not stated)
Response: 0.000262

----------
Settings: in ethanol, 278.2 K
result_type: solubility (mole fraction)
// keep it numeric: no unit symbol after the value

Prompt: Entry under review: Cc1nnc(C(C)C)n1C1C[C@H]2CC[C@@H](C1)N2CC[C@H](NC(=O)C1CCC(F)(F)CC1)c1ccccc1 (some centres not stated) . Reported solubility (mole fraction)?
Response: 0.000281

Prompt: Note, next up: "O=C(Nc1c(Cl)cncc1Cl)c1ccc(OC(F)F)c(OCC2CC2)c1"
Response: 6.5e-05

----------
Settings: in water, 308.2 K
result_type: solubility (mole fraction)

Prompt: Entry under review: Cc1nnc(C(C)C)n1C1C[C@H]2CC[C@@H](C1)N2CC[C@H](NC(=O)C1CCC(F)(F)CC1)c1ccccc1 (stereo partly specified) . Reported solubility (mole fraction)?
Response: 4.8e-05

----------
Details: in n-propanol, 293.2 K
Assign solubility (mole fraction) to each entry below.
// keep it numeric: no unit symbol after the value

Prompt: Entry under review: Cc1nnc(C(C)C)n1C1C[C@H]2CC[C@@H](C1)N2CC[C@H](NC(=O)C1CCC(F)(F)CC1)c1ccccc1 (some centres not stated) . Reported solubility (mole fraction)?
Response: 0.000609

Prompt: Note, next up: "O=C(Nc1c(Cl)cncc1Cl)c1ccc(OC(F)F)c(OCC2CC2)c1"
Response: 0.000131

----------
Assign solubility (mole fraction) to each entry below.
Conditions: in DMF, 323.2 K
// keep it numeric: no unit symbol after the value

Prompt: Entry under review: Cc1nnc(C(C)C)n1C1C[C@H]2CC[C@@H](C1)N2CC[C@H](NC(=O)C1CCC(F)(F)CC1)c1ccccc1 (some centres not stated) . Reported solubility (mole fraction)?
Response: 0.00101

Prompt: Note, next up: "O=C(Nc1c(Cl)cncc1Cl)c1ccc(OC(F)F)c(OCC2CC2)c1"
Response: 0.000119

Data origin, for the record: BigSolDB 2.1
